assay: AUC (0 to infinity) in Sprague-Dawley rat at 3 mg/kg, po by HPLC-MS method; type: ADME, organism-based; set-up: dose 3 mg/kg, route oral, time infinity; settings: plasma
quantity kind: AUC(0-inf)
Report as: number unit

// known answers, use as guide
CCN1CCc2c(c3cc(OC)c(OC)cc3c3cc(OC)ccc23)C1 ... 2470 ng·h/mL
CCCN1CCc2c(c3cc(OC)c(OC)cc3c3cc(OC)c(OC)cc23)C1 ... 515 ng·h/mL

Next:
Looking up CCN1Cc2c(c3ccc(OC)cc3c3cc(OC)c(OC)cc23)C(O)C1 (stereo not drawn) , I see its AUC(0-inf) listed as 646 ng·h/mL

Source: ChEMBL document CHEMBL2177013
